Target: Cbl-b (Homo sapiens, UniProt Q13191)
Sequence (Q13191 36-427): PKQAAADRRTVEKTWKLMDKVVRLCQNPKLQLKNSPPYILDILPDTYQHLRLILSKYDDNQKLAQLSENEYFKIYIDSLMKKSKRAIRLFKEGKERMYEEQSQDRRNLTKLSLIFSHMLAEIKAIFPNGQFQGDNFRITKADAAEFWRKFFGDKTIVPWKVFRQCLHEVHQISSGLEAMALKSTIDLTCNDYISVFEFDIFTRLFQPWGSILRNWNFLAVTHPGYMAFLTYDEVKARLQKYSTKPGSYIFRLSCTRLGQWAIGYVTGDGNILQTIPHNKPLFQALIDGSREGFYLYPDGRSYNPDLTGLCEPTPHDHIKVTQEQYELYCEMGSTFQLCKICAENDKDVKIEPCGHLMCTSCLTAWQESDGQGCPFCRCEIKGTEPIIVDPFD
Experiment: Cbl-b activity assay (Cbl-b inhibition assay), TR-FRET of Cbl-b interaction with UbcH5B-Ub
Format: biochemical
Conditions: assay buffer with 100 mM NaCl, 60 nM Src kinase; read-out: Cbl-b activity IC50
measurement type: IC50

// query Value wanted: IC50 (Cbl-b (Homo sapiens, UniProt Q13191)) of entry Cn1cnnc1CC1(c2cccc(NC(=O)c3cc(CN4CC[C@H](F)C4)nc(C(F)(F)F)n3)c2)COC1
// result < 100 nM

// query Value wanted: IC50 (Cbl-b (Homo sapiens, UniProt Q13191)) of entry Cn1cnnc1C(F)(F)C1(c2cccc(N3Cc4c(cc(CN5CC[C@H](F)C5)cc4C(F)(F)F)C3=O)c2)CC1
// result < 100 nM

Next:
// query Value wanted: IC50 (Cbl-b (Homo sapiens, UniProt Q13191)) of entry Cn1cnnc1CC1(c2cccc(N3Cc4c(cc(CO)cc4C(F)(F)F)C3=O)c2)COC1
// result < 100 nM

// query Value wanted: IC50 (Cbl-b (Homo sapiens, UniProt Q13191)) of entry C[C@H](Sc1nncn1C)c1cccc(NC(=O)c2cc(C(=O)N3CC(O)C3)ccn2)c1
// result 301 to 1000 nM

// query Value wanted: IC50 (Cbl-b (Homo sapiens, UniProt Q13191)) of entry Cn1cnnc1C(F)(F)[C@](C)(F)c1cccc(N2Cc3c(cc(CN4CC[C@H](S(C)(=O)=O)C4)cc3C(F)(F)F)C2=O)c1
// result < 100 nM

// query Value wanted: IC50 (Cbl-b (Homo sapiens, UniProt Q13191)) of entry CN1C2CCC1CN(c1cc3c(c(C(F)(F)F)c1)CN(c1cccc(C4(Cc5nncn5C)COC4)c1)C3=O)C2
// result < 100 nM

// query Value wanted: IC50 (Cbl-b (Homo sapiens, UniProt Q13191)) of entry CC(Sc1nncn1C)c1cncc(NC(=O)c2cccc(C(F)(F)F)n2)c1 (stereo not drawn)
// result 3000 to 10000 nM

// query Value wanted: IC50 (Cbl-b (Homo sapiens, UniProt Q13191)) of entry Cn1cnnc1CC1(c2cccc(NC(=O)c3cc(CN4C[C@@H]5[C@H](C4)C5(F)F)cc(C4CC4)n3)c2)COC1
// result < 100 nM

// query Value wanted: IC50 (Cbl-b (Homo sapiens, UniProt Q13191)) of entry C[C@H](Cc1nncn1C1CC1)c1cccc(N2Cc3c(cccc3C(F)(F)F)C2=O)c1
// result 301 to 1000 nM

// query Value wanted: IC50 (Cbl-b (Homo sapiens, UniProt Q13191)) of entry CC(Sc1nncn1C)c1cc(F)cc(N2Cc3c(cccc3C(F)(F)F)C2=O)c1 (stereo not drawn)
// result 301 to 1000 nM

// query Value wanted: IC50 (Cbl-b (Homo sapiens, UniProt Q13191)) of entry C[C@@H](Cc1nncn1C)c1cccc(NC(=O)c2cc(C3CC3)cc(C(F)(F)F)n2)c1
// result 301 to 1000 nM

// query Value wanted: IC50 (Cbl-b (Homo sapiens, UniProt Q13191)) of entry C[C@H](Cc1nncn1C)c1cc(N[C@H]2CCOC2)nc(N2Cc3c(cccc3C(F)(F)F)C2=O)c1 (stereo in doubt)
// result 301 to 1000 nM

// query Value wanted: IC50 (Cbl-b (Homo sapiens, UniProt Q13191)) of entry C[C@H](Sc1nncn1C)c1cccc(NC(=O)c2nc(C(F)(F)F)ccc2N)c1
// result 1000 to 3000 nM

// query Value wanted: IC50 (Cbl-b (Homo sapiens, UniProt Q13191)) of entry Cn1cnnc1CC1(c2cccc(N3Cc4c(cc(CN5CCOC(C6CCC6)C5)cc4C(F)(F)F)C3=O)c2)COC1 (stereo not drawn)
// result < 100 nM

// query Value wanted: IC50 (Cbl-b (Homo sapiens, UniProt Q13191)) of entry C[C@H](Cc1nncn1C)c1cccc(N2Cc3c(cc(C(=O)O)cc3C(F)(F)F)C2=O)c1
// result 1000 to 3000 nM

// query Value wanted: IC50 (Cbl-b (Homo sapiens, UniProt Q13191)) of entry Cn1cnnc1[C@@H]1C[C@@H]1c1cccc(NC(=O)c2nc3c(C(F)(F)F)cccc3[nH]2)c1
// result 100 to 300 nM

// query Value wanted: IC50 (Cbl-b (Homo sapiens, UniProt Q13191)) of entry CC1=C(c2cc3c(c(C(F)(F)F)c2)CN(c2cccc(C4(Cc5nncn5C)COC4)c2)C3=O)CCO1
// result < 100 nM

// query Value wanted: IC50 (Cbl-b (Homo sapiens, UniProt Q13191)) of entry C[C@H](Cc1nncn1C)c1cc(N2Cc3c(cccc3C(F)(F)F)C2=O)nc(C2(C)CC2)c1
// result 301 to 1000 nM

// query Value wanted: IC50 (Cbl-b (Homo sapiens, UniProt Q13191)) of entry CN1CC2CC(C1)N2c1cc(C(=O)Nc2cccc(C3(Cc4nncn4C)COC3)c2)nc(C2CC2)n1
// result < 100 nM

// query Value wanted: IC50 (Cbl-b (Homo sapiens, UniProt Q13191)) of entry Cn1cnnc1CC1(c2cccc(N3Cc4c(cc(CN5CCC(F)(F)C(O)C5)cc4C(F)(F)F)C3=O)c2)COC1 (stereo not drawn)
// result < 100 nM

// query Value wanted: IC50 (Cbl-b (Homo sapiens, UniProt Q13191)) of entry CC(Sc1nncn1C)c1cccc(N2Cc3ccc(C(C)(C)O)cc3C2=O)c1 (stereo not drawn)
// result 3000 to 10000 nM

// query Value wanted: IC50 (Cbl-b (Homo sapiens, UniProt Q13191)) of entry C[C@H](Cc1nncn1C)c1ccnc(NC(=O)c2ccc3ccccc3n2)c1
// result 301 to 1000 nM

// query Value wanted: IC50 (Cbl-b (Homo sapiens, UniProt Q13191)) of entry Cn1cnnc1CC1(c2cccc(N3Cc4c(cc(CN5CCOC(C6CC6)C5)cc4C(F)(F)F)C3=O)c2)COC1 (stereo not drawn)
// result < 100 nM

// query Value wanted: IC50 (Cbl-b (Homo sapiens, UniProt Q13191)) of entry CCOc1cccc(C(=O)Nc2cccc([C@H](C)Sc3nncn3C)c2)n1
// result 1000 to 3000 nM

// query Value wanted: IC50 (Cbl-b (Homo sapiens, UniProt Q13191)) of entry Cc1cc(C(=O)Nc2cccc(C3(C(F)(F)c4nncn4C)COC3)c2)nc(C2CC2)n1
// result < 100 nM

// query Value wanted: IC50 (Cbl-b (Homo sapiens, UniProt Q13191)) of entry C[C@H](Cc1nncn1C)c1cccc(NC(=O)c2cn3ccnc3cn2)c1
// result 301 to 1000 nM

Data provenance: patent US20220324835A1
